target: UniProt:P23458
pIC50: −log10 of the molar value.
result type: pIC50

Recorded results for 3 compounds are shown here.
{"compound": "CCOC(=O)c1cnc2[nH]ccc2c1N(C)[C@@H]1CC[C@@H](O)C1 (single isomer, unassigned) [Example 68B]", "pIC50": "6.00 to 7.00"}
{"compound": "CCCOC(=O)c1cnc2[nH]ccc2c1N[C@@H]1CCCN(C(=O)CC#N)C1", "pIC50": "≥ 8.00"}
{"compound": "CCOC(=O)c1cnc2[nH]ccc2c1N[C@H]1CN(CCC#N)CC[C@H]1C", "pIC50": "≥ 8.00"}

Attention now shifts to the item below.
Query: Recorded pIC50 for COCCOC(=O)c1cnc2[nH]ccc2c1N[C@@H]1CCC[C@H](CCC#N)C1 (single isomer, unassigned; enantiomer 2) , please?
Result: ≥ 8.00

###

The reader will find IC50 measurements below, all made with JAK1 (Homo sapiens (Human), UniProt P23458).
Sequence (P23458 whole entry): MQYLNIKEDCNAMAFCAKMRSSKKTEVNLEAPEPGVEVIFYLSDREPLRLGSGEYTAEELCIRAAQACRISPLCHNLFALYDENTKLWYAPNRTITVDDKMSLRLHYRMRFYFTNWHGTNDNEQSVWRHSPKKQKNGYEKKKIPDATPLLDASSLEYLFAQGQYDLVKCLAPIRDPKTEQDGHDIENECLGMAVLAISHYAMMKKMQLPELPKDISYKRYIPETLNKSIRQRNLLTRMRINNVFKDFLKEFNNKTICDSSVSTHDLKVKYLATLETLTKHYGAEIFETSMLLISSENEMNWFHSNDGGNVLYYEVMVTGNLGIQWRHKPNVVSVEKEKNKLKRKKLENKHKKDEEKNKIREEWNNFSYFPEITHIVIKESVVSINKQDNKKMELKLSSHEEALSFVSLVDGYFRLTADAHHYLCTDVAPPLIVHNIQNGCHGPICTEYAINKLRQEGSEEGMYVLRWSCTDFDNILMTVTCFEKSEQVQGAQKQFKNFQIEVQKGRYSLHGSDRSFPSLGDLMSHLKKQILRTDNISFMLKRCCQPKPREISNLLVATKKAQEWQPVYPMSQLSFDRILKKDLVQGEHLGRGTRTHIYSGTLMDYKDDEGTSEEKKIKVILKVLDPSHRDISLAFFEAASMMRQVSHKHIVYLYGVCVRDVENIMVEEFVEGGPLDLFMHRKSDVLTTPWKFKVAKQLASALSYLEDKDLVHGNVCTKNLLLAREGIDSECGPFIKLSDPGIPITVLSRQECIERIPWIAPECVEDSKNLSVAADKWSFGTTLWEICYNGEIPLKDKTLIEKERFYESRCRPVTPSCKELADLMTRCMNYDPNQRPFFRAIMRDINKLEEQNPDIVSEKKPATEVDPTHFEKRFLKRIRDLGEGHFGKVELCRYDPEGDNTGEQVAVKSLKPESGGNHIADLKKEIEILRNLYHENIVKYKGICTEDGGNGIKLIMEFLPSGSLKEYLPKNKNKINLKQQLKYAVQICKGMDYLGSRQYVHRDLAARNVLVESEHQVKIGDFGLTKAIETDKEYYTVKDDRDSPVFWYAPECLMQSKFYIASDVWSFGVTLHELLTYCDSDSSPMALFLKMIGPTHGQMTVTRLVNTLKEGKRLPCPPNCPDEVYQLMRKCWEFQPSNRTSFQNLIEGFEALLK
Where a name gives a salt, the structure may show the parent alone.

Recorded results for 5 compounds are shown here.
{"compound": "CCOC(=O)c1cnc2[nH]ccc2c1N[C@@H]1CCCN(C(=O)CC#N)C1 [Example 117]", "IC50": "≤ 10 nM"}
{"compound": "CCOC(=O)c1cnc2[nH]ccc2c1N[C@@H]1CCCN(CCC#N)C1 [Example 123]", "IC50": "≤ 10 nM"}
{"compound": "CCOC(=O)c1cnc2[nH]ccc2c1N[C@H]1CC[C@H](CS(=O)(=O)NC)CC1 [Example 92]", "IC50": "≤ 10 nM"}
{"compound": "CCOC(=O)c1cnc2[nH]ccc2c1N(C)[C@H]1CC[C@H](O)C1 (single isomer, unassigned) [Example 68A]", "IC50": "100 to 1000 nM"}
{"compound": "N#CCC(=O)N1CCC[C@@H](Nc2c(C(=O)O)cnc3[nH]ccc23)C1 [Example 121, trifluoroacetic acid Salt]", "IC50": "100 to 1000 nM"}

Query: Item: CCOC(=O)c1cnc2[nH]ccc2c1N[C@@H]1CCC[C@H](CCC#N)C1 (single isomer, unassigned; enantiomer 2) [Example 136] Test system: JAK1 (Homo sapiens (Human), UniProt P23458) Read-out: IC50 Value: ?
Result: 10 to 100 nM

Query: Item: CCOC(=O)c1cnc2[nH]ccc2c1N(C)[C@H]1CN(C(=O)CC#N)CC[C@H]1C [Example 1] Test system: JAK1 (Homo sapiens (Human), UniProt P23458) Read-out: IC50 Value: ?
Result: 10 to 100 nM

###

Molecular target: JAK1 (Homo sapiens (Human), UniProt P23458)
Assay: JAK1 enzyme activity assay (Thermo Fisher SelectScreen Z-lyte)
Type: biochemical
Settings: 1 hour kinase reaction, read-out: JAK1 Inhibition IC50
Experimental: The inhibitory potency of candidate compounds of JAK1 done at Thermo Fisher Scientific in their Selectscreen using a Z-lyte assay. The 2×JAK1/Tyr 06 mixture is prepared in 50 mM HEPES pH 6.5, 0.01% BRIJ-35, 10 mM MgCl2, 1 mM EGTA, 0.02% NaN3. […] Background signal is defined in the absence of enzyme and uninhibited signal is defined in the presence of vehicle (2% DMSO) alone. Compounds were evaluated in an 11 point dose-response ranging from 20 mM to 0.34 nM. […]
result type: IC50

{"compound": "CCOC(=O)c1cnc2[nH]ccc2c1N(C)[C@H]1CC[C@H](OC(=O)CC#N)C1 (single isomer, unassigned)", "target under test": "JAK1 (Homo sapiens (Human), UniProt P23458)", "result type": "IC50", "result": "100 to 1000 nM"}
{"compound": "CCOC(=O)c1cnc2[nH]ccc2c1NC1CCC(O)C(CC#N)C1 (stereo not shown)", "target under test": "JAK1 (Homo sapiens (Human), UniProt P23458)", "result type": "IC50", "result": "≤ 10 nM"}
{"compound": "CCOC(=O)c1cnc2[nH]ccc2c1N[C@H]1CN(C(=O)C(C)C#N)CC[C@H]1C (stereo partly shown)", "target under test": "JAK1 (Homo sapiens (Human), UniProt P23458)", "result type": "IC50", "result": "≤ 10 nM"}

Query: Recorded IC50 for CCCOC(=O)c1cnc2[nH]ccc2c1N[C@H]1CCC[C@@H](CCC#N)C1 (racemic) , please?
Result: ≤ 10 nM

###

The reader will find IC50 measurements below, all made with JAK1 (Homo sapiens (Human)).
Where a name gives a salt, the structure may show the parent alone.

Recorded results for 4 compounds are shown here.
{"compound": "CCOC(=O)c1cnc2[nH]ccc2c1N[C@@H]1CCCN(C(=O)C2(C#N)CC2)C1", "result": "10 to 100 nM"}
{"compound": "C[C@@H]1CCN(C(=O)CC#N)C[C@@H]1Nc1c(C(=O)O)cnc2[nH]ccc12 [Example 120, trifluoroacetic acid Salt]", "result": "100 to 1000 nM"}
{"compound": "CC(C)OC(=O)c1cnc2[nH]ccc2c1N[C@H]1CN(C(=O)CC#N)CC[C@H]1C", "result": "10 to 100 nM"}
{"compound": "COC(=O)c1cnc2[nH]ccc2c1N[C@H]1CN(C(=O)CC#N)CC[C@H]1C", "result": "≤ 10 nM"}

Query: Item: CCOC(=O)c1cnc2[nH]ccc2c1N[C@H]1CC[C@H](OC(=O)CC#N)C1 (single isomer, unassigned) Test system: JAK1 (Homo sapiens (Human)) Read-out: IC50 Value: ?
Result: 10 to 100 nM
